Recorded values, source the Human Domainome abundance scans (Beltran et al. 2025).

B1: Androgen receptor, residues 557 to 632; numbered along this chain, P10275 (parent)
chain: QKTCLICGDEASGCHYGALTCGSCKVFFKRAAEGKQKYLCASRNDCTIDKFRRKNCPSCRLRKCYEAGMTLGARKL

Variants of: B1
Assay: abundance fitness (aPCA) (normalised: wild type 0, dead -1); higher = more abundant; growth selection in yeast, the domain comes from the species named
Details: Homo sapiens
abundance fitness of -0.1 or higher: YES. Under -0.1: NO.

- T47P: YES
- T3K: NO
- L5E: YES
- F27M: NO
- L39T: YES
- G13E: NO
- S58T: NO
- N55G: YES
- N44G: YES
- K37V: YES
- S23F: NO
- G22Y: NO
- K63E: YES
- A73P: NO
- A18L: NO
- K50V: YES
- D49S: NO
- I48G: NO
- Q36F: NO
- E33F: NO
- T47R: NO
- I6Q: NO
